This collection of values is drawn from patent US20250243281A1.

Study System: T1, hKLRF1 (human, UniProt Q9NZS2 1-231)
T1 construct: Overexpressed on HEK293 cells
T1 sequence: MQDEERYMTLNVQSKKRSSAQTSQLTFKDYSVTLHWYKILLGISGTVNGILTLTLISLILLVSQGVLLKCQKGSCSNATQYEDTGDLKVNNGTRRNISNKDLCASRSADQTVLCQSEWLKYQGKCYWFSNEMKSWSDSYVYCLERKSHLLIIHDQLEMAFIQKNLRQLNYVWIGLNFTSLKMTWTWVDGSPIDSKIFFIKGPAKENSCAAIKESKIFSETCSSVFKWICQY
Assay: flow cytometry, HEK293 transfectants, 100 nM antibody;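 note: antibody applied at a saturating level and incubated with cells for 30 min at room temperature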
// reported % of CD161 binding for each item listed
Quick reminder: number only, in %, skip the unit.

The cases that follow already have their % of CD161 binding on record.
Binder | % of CD161 binding, %
Ab12 (antibody, human IgG1, V domains shown, IgG purified from yeast culture) VH: QVQLVESGGGLVKPGGSLRLSCAASGFTFAQYYMSWIRQAPGKGLEWVSYISPSGSTIAYADSVKGRFTISRDNAKNSLYLQMNSLRAEDTAVYYCARSLMATGTHLYFDLWGRGTLVTVSS VL: DIQLTQSPSSVSASVGDRVTITCRASQDISSWLAWYQQKPGKAPKLLIYAASSLQSGVPSRFSGSGSGTDFTLTISSLQPEDFATYYCQQVTSFPPYTFGGGTKVEIK | 0.065
Ab9 (antibody, human IgG1, V domains shown) VH: EVQLLESGGGLVQPGGSLRLSCAASGFTFSPYAMSWVRQAPGKGLEWVSAISASGGTTYYADSVKGRFTISRDNSKNTLYLQMNSLRAEDTAVYYCAKPLDSSFWADFDLWGRGTLVTVSS VL: DIQLTQSPSSVSASVGDRVTITCRASQGISSWLAWYQQKPGKAPKLLIYAASSLQSGVPSRFSGSGSGTDFTLTISSLQPEDFATYYCQQHSVLPITFGGGTKVEIK | 0.042

Below: the item to evaluate.
Request the reported % of CD161 binding associated with Ab16 (antibody, human IgG1, V domains shown, IgG purified from yeast culture) VH: QVQLVESGGGLVKPGGSLRLSCAASGFTFSDYYMSWIRQAPGKGLEWVSYISPSGATIAYADSVKGRFTISRDNSKNTLYLQMNSLRAEDTAVYYCARSLMATGTHLYFDLWGRGTLVTVSS VL: DIQLTQSPSSVSASVGDRVTITCRASQGISSWLAWYQQKPGKAPKLLIYAASGLQSGVPSRFSGSGSGTDFTLTISSLQPEDFATYYCQQSTSFPPYTFGGGTKVEIK
0.061
